target: SMARCA4 (Homo sapiens); assay: SMARCA4 capillary electrophoresis protein assay in RKO cells; assay type: cell-based; set-up: endogenous in cells; host or cells: RKO, HCT116, LU99, HCC-364, HCT-15, HCC4006, SK-N-AS; conditions: RKO (4 h); mean ± SD
Sequence (P51532 whole entry): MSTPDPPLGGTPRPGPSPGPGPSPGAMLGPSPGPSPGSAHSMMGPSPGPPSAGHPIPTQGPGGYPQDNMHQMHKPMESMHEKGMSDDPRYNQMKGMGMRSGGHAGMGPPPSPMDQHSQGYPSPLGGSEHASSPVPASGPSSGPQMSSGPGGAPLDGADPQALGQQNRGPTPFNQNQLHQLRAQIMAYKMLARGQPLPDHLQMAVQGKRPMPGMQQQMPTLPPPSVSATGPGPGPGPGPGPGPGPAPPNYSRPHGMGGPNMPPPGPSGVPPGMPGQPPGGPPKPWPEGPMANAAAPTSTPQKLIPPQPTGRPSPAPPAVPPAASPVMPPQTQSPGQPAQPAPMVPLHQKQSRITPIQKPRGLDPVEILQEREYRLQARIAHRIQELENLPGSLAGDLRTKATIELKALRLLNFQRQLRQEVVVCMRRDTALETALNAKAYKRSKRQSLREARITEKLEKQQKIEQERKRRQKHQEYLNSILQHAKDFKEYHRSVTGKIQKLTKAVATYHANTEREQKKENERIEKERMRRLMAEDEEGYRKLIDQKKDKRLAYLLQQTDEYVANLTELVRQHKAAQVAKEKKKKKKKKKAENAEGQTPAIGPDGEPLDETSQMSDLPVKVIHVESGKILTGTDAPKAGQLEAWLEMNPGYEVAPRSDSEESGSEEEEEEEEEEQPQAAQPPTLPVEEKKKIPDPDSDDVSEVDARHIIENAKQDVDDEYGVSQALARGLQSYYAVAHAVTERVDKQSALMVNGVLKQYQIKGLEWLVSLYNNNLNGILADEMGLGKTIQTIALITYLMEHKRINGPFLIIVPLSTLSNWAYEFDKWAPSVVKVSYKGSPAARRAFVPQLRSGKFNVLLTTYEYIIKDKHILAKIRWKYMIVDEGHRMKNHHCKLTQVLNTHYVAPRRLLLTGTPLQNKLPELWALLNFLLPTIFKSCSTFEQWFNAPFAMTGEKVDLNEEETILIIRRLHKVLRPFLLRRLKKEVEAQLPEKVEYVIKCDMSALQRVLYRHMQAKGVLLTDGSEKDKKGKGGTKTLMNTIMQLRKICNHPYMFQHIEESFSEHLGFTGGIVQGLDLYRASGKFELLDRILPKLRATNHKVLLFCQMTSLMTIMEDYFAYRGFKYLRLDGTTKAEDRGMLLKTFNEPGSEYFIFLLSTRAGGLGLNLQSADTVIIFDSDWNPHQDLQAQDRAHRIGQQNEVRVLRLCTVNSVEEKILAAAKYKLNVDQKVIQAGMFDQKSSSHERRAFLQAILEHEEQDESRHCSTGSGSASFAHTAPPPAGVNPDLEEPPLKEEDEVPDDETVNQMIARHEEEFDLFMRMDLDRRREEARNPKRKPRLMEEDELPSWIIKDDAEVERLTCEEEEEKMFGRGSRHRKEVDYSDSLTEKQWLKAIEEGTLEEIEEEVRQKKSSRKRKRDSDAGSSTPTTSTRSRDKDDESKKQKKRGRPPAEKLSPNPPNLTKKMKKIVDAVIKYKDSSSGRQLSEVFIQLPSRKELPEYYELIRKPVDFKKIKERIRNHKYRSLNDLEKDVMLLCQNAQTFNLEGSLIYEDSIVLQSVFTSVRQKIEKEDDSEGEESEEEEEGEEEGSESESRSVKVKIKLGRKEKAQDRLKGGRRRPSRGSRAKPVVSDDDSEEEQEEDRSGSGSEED
READOUT_LABEL: DC50

Summary for this molecule, CN1CCN(c2nc(=O)c3c(F)cccc3o2)CC1 : DC50 is > 25 µM

More entries:
Summary for this molecule, Cc1ncsc1-c1ccc(CNC(=O)[C@@H]2C[C@H](O)CN2C(=O)[C@@H](NC(=O)C2(F)CC2)C(C)(C)C)c(OCCN2CCC(c3ccc4c(c3)n(C3CCCC3)c3nc(=O)c5c(Br)cccc5n43)CC2)c1 : DC50 is > 25 µM

Summary for this molecule, Cc1ncsc1-c1ccc([C@H](COCCCN2CCC(c3ccc4c(c3)n(C3CCCC3)c3nc(=O)c5c(Br)cccc5n43)CC2)NC(=O)[C@@H]2C[C@@H](O)CN2C(=O)[C@@H](NC(=O)C2(F)CC2)C(C)(C)C)cc1 : DC50 is 0.042 µM
